System: murine neural precursor cells (neurosphere cultures)
Protocol Description: HTS of LOPAC library against secondary neurosphere cultures, MTT proliferation assay at 3 μM, day 7 (z score, P value)
Format: cell-based, mouse
Conditions: 168 h, 3 µM
Would you mind labelling by Z Score? At or over -1 is T, under is F.

- CC(C)[N+](C)(CCOC(=O)C1c2ccccc2Oc2ccccc21)C(C)C [Propantheline bromide]: F

Exam item: decide whether the reported Z Score for `Cn1c(=O)c2[nH]c(C3CCCC3)nc2n(C)c1=O` is at least -1.
T

Is reported Z Score greater than or equal to -1 here: C[N+](C)(C)CC=O [Betaine aldehyde chloride]
T

Quick check: does Oc1ccc(Cn2ccnc2S)cc1 [1-(4-Hydroxybenzyl)imidazole-2-thiol] have Z Score greater than or equal to -1?
T

Exam item: decide whether the reported Z Score for N[C@@H](Cc1ccc(O)c(O)c1)C(=O)O [L-3,4-Dihydroxyphenylalanine] is at least -1.
T

hey, is Z Score for this one >= -1? O=c1[nH]c(=O)n([C@H]2C[C@H](O)[C@@H](CO)O2)cc1/C=C/Br [(E)-5-(2-Bromovinyl)-2′-deoxyuridine]
F

Please check the record `Cl.NC1(C(=O)O)CCCCC1` and state if its Z Score is at or above -1.
T
